Read-out: Collagen III, COL3A1 (gene 1281)
assay comment: BSK_hDFCGF_CollagenIII: BioMAP Diversity Plus: hDFCGF Assay for Collagen III Biomarker Activity (AID 2283056)
run conditions: primary human foreskin fibroblasts; actives raise or lower the signal
Calls of active or inactive are those of the source. Rule for the calls: active = hit-call score of the fitted dose curve at least 0.9, where 1 is the maximum; inactive = score below 0.9.
Field 'call' accepts active, inactive

Solved cases (4 shown):
compound	qualitative label
CC(=O)Oc1ccccc1C(=O)O	inactive
CC(=O)C(C)=CC1C(C)=CCCC1(C)C (configuration not stated)	inactive
COC(=O)c1ccc(O)cc1	inactive
CC=Cc1ccc(O)c(OC)c1	inactive

For CCCc1cc(=O)[nH]c(=S)[nH]1 , which call appears in the assay record?
inactive

How was CC(=O)OCCOCCOCCOC(C)=O classified in this test?
inactive

Hey, what did the test say about COCCOCCOC ?
active

---

Read-out: Cytochrome P450 3A7 (Homo sapiens) (UniProt P24462)
Sequence (P24462 whole entry, looked up): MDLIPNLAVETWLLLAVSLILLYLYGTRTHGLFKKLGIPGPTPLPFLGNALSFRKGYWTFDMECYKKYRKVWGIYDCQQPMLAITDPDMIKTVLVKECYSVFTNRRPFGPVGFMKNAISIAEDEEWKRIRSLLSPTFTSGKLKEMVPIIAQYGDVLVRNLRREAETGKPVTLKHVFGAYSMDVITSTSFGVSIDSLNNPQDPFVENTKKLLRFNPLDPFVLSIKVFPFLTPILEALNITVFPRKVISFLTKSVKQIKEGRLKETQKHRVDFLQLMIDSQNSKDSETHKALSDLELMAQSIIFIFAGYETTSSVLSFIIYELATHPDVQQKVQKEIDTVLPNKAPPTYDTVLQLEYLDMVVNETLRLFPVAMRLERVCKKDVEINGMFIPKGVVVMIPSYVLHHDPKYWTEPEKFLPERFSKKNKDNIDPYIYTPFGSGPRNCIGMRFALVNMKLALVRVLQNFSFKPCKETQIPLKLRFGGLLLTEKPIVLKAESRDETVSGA
assay comment: LTEA_HepaRG_CYP3A7: Life Technologies and Expression Analysis (LTEA) Assay for CYP3A7 using HepaRG (AID 2283492)
run conditions: mRNA level, 48 h; actives raise or lower the signal
Active and inactive are the calls of the source. How the source made its calls: active means hit-call score of the fitted dose curve at least 0.9, where 1 is the maximum; inactive means score below 0.9.
measured quantity: AC50

Use the examples below as a reference point.
molecule	measured quantity	obs value
COCCOC[C@H](CC1(C(=O)NC2CCC(C(=O)O)CC2)CCCC1)C(=O)Oc1ccc2c(c1)CCC2 (some centres not stated)	AC50	inactive
Cc1oc(-c2ccccc2)nc1CCOc1cccc2c1ccn2CCC(=O)O	AC50	11.4 µM (active)
Cc1c(C(=O)O)c(O)cc2c1C(=O)c1c(O)c([C@@H]3O[C@H](CO)[C@@H](O)[C@H](O)[C@H]3O)c(O)c(O)c1C2=O	AC50	inactive
COc1cc(-c2nc(NC(=O)c3cc4cc(C)cc(C)c4n3CC(=O)O)sc2CCC2CCCCC2)c(OC)cc1Cl	AC50	7.24 µM (active)
COc1ccc2c(c1)c(CC(=O)O)c(C)n2C(=O)c1ccc(Cl)cc1	AC50	inactive

# map each molecule to its AC50
1. COc1ccc(C)cc1N
2. FC(F)(F)C(F)(F)C(F)(F)C(F)(F)C(F)(F)C(F)(F)CCI

1: inactive; 2: inactive

---

Read-out: MYC, MYC (gene 4609)
assay comment: LTEA_HepaRG_MYC: Life Technologies and Expression Analysis (LTEA) Assay for MYC using HepaRG (AID 2283518)
run conditions: mRNA level, 48 h; actives raise or lower the signal
The source made the active and inactive calls. The calls were made as follows: active = hit-call score of the fitted dose curve at least 0.9, where 1 is the maximum; inactive = score below 0.9.
Return exactly one item of 1 = active, -1 = inactive

// known answers, use as guide
molecule	qualitative label
CC=Cc1ccc(O)c(OC)c1	-1
CC(=O)Oc1ccccc1C(=O)O	-1
COc1ccc(S(=O)(=O)N2C(=O)[C@@](c3ccccc3OC)(N3C[C@H](O)C[C@H]3C(=O)N(C)C)c3cc(Cl)ccc32)c(OC)c1	1
Cc1ccc(C)c(C)c1	-1
Oc1ccc2c(c1)OC[C@@H](N1CCC(O)(c3ccc(F)cc3)CC1)[C@H]2O	-1

What was the test verdict on CC(CO)OC(C)CO (configuration not stated) (tested in a mixture with another compound) ?
-1

---

Read-out: CD38, CD38 (gene 952)
assay comment: BSK_SAg_CD38: BioMAP Diversity Plus: SAg Assay for CD38 Biomarker Activity (AID 2283087)
run conditions: primary human HUVEC with PBMC; actives raise or lower the signal
Calls of active or inactive are those of the source. The calls were made as follows: active = hit-call score of the fitted dose curve at least 0.9, where 1 is the maximum; inactive = score below 0.9.
Respond with a class label; see active, inactive

compound	qualitative label
c1cc(-c2ccncc2)ccn1	inactive
Cc1cccc([N+](=O)[O-])c1C	inactive
Cc1ccc(N(C)C)cc1	inactive
CCCCN(CCCC)CCCC	inactive
Cc1cccc(Nc2cc(Cl)nc(SCC(=O)O)n2)c1C	inactive
O=C(OCCCCCOC(=O)c1ccccc1)c1ccccc1	inactive
CC(CO)OC(C)CO (centres undefined) (tested in a mixture with another compound)	inactive
COc1ccc(C)cc1N	inactive
CCCCc1ccc2c(n1)[C@@H](c1ccc(OC)cc1C[C@H](C)C(=O)O)[C@H](C(=O)O)[C@H]2c1ccc2c(c1)OCO2	inactive
CCCCCCCCCCCCCCCC	inactive

Hi, do you know how COc1cc(C=O)ccc1O came out in this test?
inactive

Test call for this compound, please: CCCCCCCCCCCCCO
active

Write down the call the test reported for this compound. Item: OC[C@@H](O)[C@@H](O)[C@H](O)[C@H](O)CO
inactive

How was Nc1ccc(S(=O)(=O)c2ccc(N)cc2)cc1 classified in this test?
inactive

---

assay comment: BSK_3C_VCAM1: BioMAP Diversity Plus: 3C Assay for Vascular cell adhesion molecule 1 (VCAM1) Biomarker Activity (AID 2282999)
run conditions: BioMAP 3C HUVEC, VCAM1 ELISA, cytokine-stimulated; actives raise or lower the signal
Active and inactive are the calls of the source. How the source made its calls: active means hit-call score of the fitted dose curve at least 0.9, where 1 is the maximum; inactive means score below 0.9.
The reply should name one outcome from active, inactive

Use the examples below as a reference point.
compound	qualitative label
CCCCCCCCCCCC(=O)OC	inactive
Cc1cccc(Nc2cc(Cl)nc(SCC(=O)O)n2)c1C	inactive

So what was the verdict on Cc1ccc(C(C)C)c(O)c1 in this test?
inactive

Identify the outcome logged in this assay for the compound shown: COc1ccc(C)cc1N
inactive

So what was the verdict on C=CCc1ccc(O)c(OC)c1 in this test?
inactive

Call for entry O=C(O)CCCCC(=O)O :
inactive

---

Read-out: Human Leukocyte Antigen - DR isotype (HLADR), HLA-DRA (gene 3122)
assay comment: BSK_3C_HLADR: BioMAP Diversity Plus: 3C Assay for Human Leukocyte Antigen - DR isotype (HLADR) Biomarker Activity (AID 2283019)
run conditions: primary human endothelial cells (HUVEC); actives raise or lower the signal
Calls of active or inactive are those of the source. How the source made its calls: active means hit-call score of the fitted dose curve at least 0.9, where 1 is the maximum; inactive means score below 0.9.
Return exactly one item of true (1) (active), false (0) (inactive)

compound	qualitative label
CC(=O)C(C)=CC1C(C)=CCCC1(C)C (stereo not drawn)	false (0)
c1cc(-c2ccncc2)ccn1	false (0)
NCC1(Cc2noc(=O)[nH]2)CCCCC1	false (0)
O=C(N[C@@H](Cc1ccccc1)[C@@H](O)C(=O)N1C[C@@H](O)[C@@H](O)C1)c1cc2cc(Cl)ccc2[nH]1	false (0)
CCOC(=O)C(C)(C)Oc1ccc(Cl)cc1	false (0)

Called result for NCCO
false (0)

Which outcome was entered for the compound COc1ccc2c(c1)c(CC(=O)O)c(C)n2C(=O)c1ccc(Cl)cc1 in this test?
false (0)

# fetch the recorded call for COCCOC[C@H](CC1(C(=O)NC2CCC(C(=O)O)CC2)CCCC1)C(=O)Oc1ccc2c(c1)CCC2 (stereo partly drawn) here
false (0)

Which outcome did this test record for the compound CCCCCCCCCCCCCO ?
true (1)

State the result this test recorded for Cc1ccc2ncccc2c1 .
false (0)

Assay result, entry CCNc1cccc(C)c1 — outcome?
false (0)

Query: recorded result category for CCCCCCC(=O)OCC in this test
false (0)

Record lookup: outcome of this test for Cc1cc(=O)[nH]c(=S)[nH]1 ?
false (0)

---

assay comment: CEETOX_H295R_OHPREG: CeeTox H295R High-throughput Steroidogenesis Assay for OH-Pregnenolone (OHPREG) (AID 2283434)
run conditions: actives raise or lower the signal
Protocol: CEETOX_H295R is a cell-based, multiplexed-readout assay that uses H295R, a human adrenal gland cell line, with measurements taken at 48 hours after chemical dosing in a 96-well plate.CEETOX_H295R_OHPREG is one of 23 assay component(s) measured or calculated from the CEETOX_H295R assay. […] This assay endpoint, CEETOX_H295R_OHPREG, was analyzed with bidirectional fitting relative to DMSO as the negative control and baseline of activity. […]
Activity calls are given as the source filed them. The calls were made as follows: active = hit-call score of the fitted dose curve at least 0.9, where 1 is the maximum; inactive = score below 0.9.
measured quantity: outcome

COc1ccc(C)cc1N inactive
c1cc(-c2ccncc2)ccn1 inactive
Oc1ccc2ccccc2c1N=Nc1ccccc1 inactive

---

Read-out: Transforming growth factor beta 1 (TGFb1), TGFB1 (gene 7040)
assay comment: BSK_KF3CT_TGFb1: BioMAP Diversity Plus: KF3CT Assay for Transforming growth factor beta 1 (TGFb1) Biomarker Activity (AID 2283072)
run conditions: primary human keratinocytes with fibroblasts; actives raise or lower the signal
Experimental: BSK_KF3CT is a cell-based, multiplexed-readout assay that uses keratinocytes and foreskin fibroblasts, a human skin primary cell co-culture, with measurements taken at 24 hours after chemical dosing in a 96-well plate.BSK_KF3CT_TGFb1 is an assay component measured in the BSK_KF3CT assay. It measures TGF-b1 antibody related to regulation of gene expression using ELISA technology.Data from the assay component BSK_KF3CT_TGFb1 was analyzed into 1 assay endpoint. […]
Calls of active or inactive are those of the source. The calls were made as follows: active = hit-call score of the fitted dose curve at least 0.9, where 1 is the maximum; inactive = score below 0.9.
measured quantity: AC50

Check out these entries, answers already filled in.
compound	obs value
CCCCCC(=O)O	inactive
CC=Cc1ccc(O)c(OC)c1	inactive
CCNc1cccc(C)c1	inactive
Oc1ccc2ccccc2c1N=Nc1ccccc1	6.33 µM (active)
CCOc1ccc2c(c1)C(C)=CC(C)(C)N2	inactive

I would be grateful if you could provide AC50 for each of the following entries.
1. C1CCC(SSC2CCCCC2)CC1
2. COC(=O)c1ccc(O)cc1
3. CCCCCCCCCCCC(=O)OC

1: 5.33 µM (active); 2: inactive; 3: inactive

For each of the items listed, what is its AC50?
1. Cc1cc(NC(=O)C(=O)O)cc(C)c1Oc1ccc(O)c2c1CCC2
2. COc1cc(C=O)ccc1O
3. CC1(C)CC(N=C=O)CC(C)(CN=C=O)C1 (stereo not given)
4. CCCCCCCCCCCCCCCC

["inactive", "inactive", "inactive", "inactive"]

Working through the 6 compounds below one at a time, give AC50 for each.
1. Nc1ccc(S(=O)(=O)c2ccc(N)cc2)cc1
2. O=C(O)Cc1ccccc1Nc1c(Cl)cccc1Cl
3. CN[C@H]1CC[C@@H](c2ccc(Cl)c(Cl)c2)c2ccc(S(N)(=O)=O)cc21
4. Cc1nc(C)nc(N2C[C@@H](C)N(c3ccnc([C@@H](C)O)n3)[C@@H](C)C2)n1
5. NCC1(Cc2noc(=O)[nH]2)CCCCC1
6. CCCCC(CC)COC(=O)CC(C(=O)OCC(CC)CCCC)S(=O)(=O)O (stereo not given)

inactive
inactive
19.9 µM (active)
inactive
inactive
2.66 µM (active)

Origin of the recorded values: PubChem BioAssay (EPA / NIEHS)
